assay summary: yeast display, Sf9 membrane polyspecificity reagent, FACS + sequencing; frameworks hold sequencing errors
reported property: polyreactivity (PSR sort gate)

{"sequence input": "QVQLVESGGGLVQAGGSLRLSCAASGSTFSFNAKGWYRQAPGKARELVAAITGGDGTNYADSVKGRFTISRDNAKNTVYLQMNSLKPEDTAVNYCAADQWGSTEDYWFTYGYWGQGTQVTVSS", "reported property": "polyreactivity (PSR sort gate)", "result": "low polyreactivity"}
{"sequence input": "QVQLIESGGGLVHAGGSLRLSCAASGSTYQANTMGWYSHAPGKERQLVAAISIRGANTYYADSVKGRFTISRDNAKNTVYIQMNSLKPEDTAVYDCATRVRKYSLRLDYWGQGTQVTVSS", "reported property": "polyreactivity (PSR sort gate)", "result": "high polyreactivity"}
{"sequence input": "QVQLVESGRGLVQAGGSLRLSCAASGTTCLYYTMGWYRQAPGKERELVASISYSGGRTYYADSVKGRFTISRDNAKNTVYLQMNSLKPEDTAVYYCNKKRYYDGYDYWGQGTQVTVSS", "reported property": "polyreactivity (PSR sort gate)", "result": "high polyreactivity"}
{"sequence input": "QVQLVESGGGLVQAGGILRLSCAASGRIFQPYAMGWYRQAPGKERELVAAISRGGTTYYADSVKGRFTISRDNAKNTVYLQMNSLKTEDTAVYYCAAPSYYRYDYWGQGTQVTVSS", "reported property": "polyreactivity (PSR sort gate)", "result": "high polyreactivity"}
{"sequence input": "QVQLVESGGGLVQAGGSLRLSCAASRRTFANYAMGWYRQAPGKERELVAAISRSGGSTYYADSVKGRFTISRDNAKNSVYLQMKSLKPEDTAVYYCAARYVRQYYRAEDYWGQGTHVTVSS", "reported property": "polyreactivity (PSR sort gate)", "result": "high polyreactivity"}
{"sequence input": "QVQLVESGGGLVQAGGSLRLSCAASGRTFRYYDMGWYRQSPGKERELVARISISGAGTYYADSVKVRFTISRDNAKNNVYLQMNSLKPEDTAVYYCAADLFWWQKTNSGGDYWGQGTQVTVSS", "reported property": "polyreactivity (PSR sort gate)", "result": "low polyreactivity"}
{"sequence input": "QVQLVESGVGLVQAGGSLRLSCAASGSIFDKNAMGWDRPAPGKERELVAAISRSGGSTYYADSVKGRFTISRDNAKNTVYLQMNSLKPEDTAVYYCNKYTNGRNFDYWGQGTQVTVSS", "reported property": "polyreactivity (PSR sort gate)", "result": "high polyreactivity"}
